Biological target: RaTG13
Assay: BLI with recombinant Fabs, drawn table of KD (µM)
pKd: −log10 of the molar value.

binder: Ab16 Fab (Fab, V domains shown) VH: EVQLQQSGPELVKPGASVKISCKASGYSFNNYYMNWVKQSPEKSLEWIGEINPNSGYTSYNQKFRAKATLTVDKSSTTAYMQLKSLTSEDSAVYYCARYFGNLFAMDFWGQGTSVTVS VL: DILMTQSPSSMSVSLGDTVSITCHASQGIGSNIGWLQQKPGKSFKGLIYLGTNLEDGVPSRFSGSGSGADYSLTISSLESEDFADYYCVQYVQFPYTFGGGTKLEIK
pKd: 6.70
